Recorded values, source patent US20230365662A1.

Target desc: HRgpA-6H (Porphyromonas gingivalis) (UniProt P28784)
Method description: ELISA on coated HRgpA-6H
Label criterion met when OD450nm < 0.6; otherwise criterion not met.

KB001 mouse Fab FASEBA VH S30W (Fab, V domains shown) VH: EVQLKQSGPGLVAPSQSLSITCTVSGFSLWIYSVHWVRQPPGKGLEWLGMIWGGGSSDYNSALKSRLSISKDNSKSQVFLKMNSLQTDDTAMYYCARNGNFYAMDYWGQGTSVTVSS VL: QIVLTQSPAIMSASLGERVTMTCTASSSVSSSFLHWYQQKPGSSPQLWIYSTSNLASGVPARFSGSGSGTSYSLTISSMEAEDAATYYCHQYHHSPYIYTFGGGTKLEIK :: criterion met
KB001 mouse Fab FASEBA VH S56M (Fab, V domains shown) VH: EVQLKQSGPGLVAPSQSLSITCTVSGFSLSIYSVHWVRQPPGKGLEWLGMIWGGGMSDYNSALKSRLSISKDNSKSQVFLKMNSLQTDDTAMYYCARNGNFYAMDYWGQGTSVTVSS VL: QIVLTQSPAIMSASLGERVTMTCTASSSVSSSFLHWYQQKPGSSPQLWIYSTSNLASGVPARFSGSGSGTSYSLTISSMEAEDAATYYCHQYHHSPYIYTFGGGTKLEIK :: criterion not met
KB001 mouse Fab FASEBA VH S65T (Fab, V domains shown) VH: EVQLKQSGPGLVAPSQSLSITCTVSGFSLSIYSVHWVRQPPGKGLEWLGMIWGGGSSDYNSALKTRLSISKDNSKSQVFLKMNSLQTDDTAMYYCARNGNFYAMDYWGQGTSVTVSS VL: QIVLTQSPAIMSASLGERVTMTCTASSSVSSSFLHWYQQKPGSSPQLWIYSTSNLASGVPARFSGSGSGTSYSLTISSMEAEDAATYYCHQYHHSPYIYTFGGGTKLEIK :: criterion not met
KB001 mouse Fab FASEBA VH S30H (Fab, V domains shown) VH: EVQLKQSGPGLVAPSQSLSITCTVSGFSLHIYSVHWVRQPPGKGLEWLGMIWGGGSSDYNSALKSRLSISKDNSKSQVFLKMNSLQTDDTAMYYCARNGNFYAMDYWGQGTSVTVSS VL: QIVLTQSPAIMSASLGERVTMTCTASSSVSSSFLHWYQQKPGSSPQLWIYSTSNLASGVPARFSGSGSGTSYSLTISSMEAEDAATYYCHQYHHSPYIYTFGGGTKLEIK :: criterion met
KB001 mouse Fab FASEBA VH L63F (Fab, V domains shown) VH: EVQLKQSGPGLVAPSQSLSITCTVSGFSLSIYSVHWVRQPPGKGLEWLGMIWGGGSSDYNSAFKSRLSISKDNSKSQVFLKMNSLQTDDTAMYYCARNGNFYAMDYWGQGTSVTVSS VL: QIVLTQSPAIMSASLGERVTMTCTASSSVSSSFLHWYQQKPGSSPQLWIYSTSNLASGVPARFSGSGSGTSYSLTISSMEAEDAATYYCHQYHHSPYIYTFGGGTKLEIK :: criterion not met
KB001 mouse Fab FASEBA VH Y59R (Fab, V domains shown) VH: EVQLKQSGPGLVAPSQSLSITCTVSGFSLSIYSVHWVRQPPGKGLEWLGMIWGGGSSDRNSALKSRLSISKDNSKSQVFLKMNSLQTDDTAMYYCARNGNFYAMDYWGQGTSVTVSS VL: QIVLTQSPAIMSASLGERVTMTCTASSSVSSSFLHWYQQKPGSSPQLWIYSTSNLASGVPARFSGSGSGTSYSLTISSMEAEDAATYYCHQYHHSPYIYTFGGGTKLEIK :: criterion not met

Request: Please indicate whether the reported OD450nm of KB001 mouse Fab FASEBA VH Y106I (Fab, V domains shown) VH: EVQLKQSGPGLVAPSQSLSITCTVSGFSLSIYSVHWVRQPPGKGLEWLGMIWGGGSSDYNSALKSRLSISKDNSKSQVFLKMNSLQTDDTAMYYCARNGNFYAMDIWGQGTSVTVSS VL: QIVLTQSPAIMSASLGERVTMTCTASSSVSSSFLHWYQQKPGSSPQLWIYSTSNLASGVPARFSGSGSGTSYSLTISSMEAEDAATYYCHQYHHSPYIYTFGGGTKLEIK is strictly below 0.6.
Response: criterion not met

Request: Would you kindly verify if OD450nm of KB001 mouse Fab FASEBA VH S61Q (Fab, V domains shown) VH: EVQLKQSGPGLVAPSQSLSITCTVSGFSLSIYSVHWVRQPPGKGLEWLGMIWGGGSSDYNQALKSRLSISKDNSKSQVFLKMNSLQTDDTAMYYCARNGNFYAMDYWGQGTSVTVSS VL: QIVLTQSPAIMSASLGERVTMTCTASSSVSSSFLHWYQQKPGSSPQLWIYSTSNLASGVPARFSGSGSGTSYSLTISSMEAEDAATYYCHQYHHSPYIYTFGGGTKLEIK is strictly less than 0.6?
Response: criterion not met

Request: OD450nm under 0.6? Item: KB001 mouse Fab FASEBA VH S61Y (Fab, V domains shown) VH: EVQLKQSGPGLVAPSQSLSITCTVSGFSLSIYSVHWVRQPPGKGLEWLGMIWGGGSSDYNYALKSRLSISKDNSKSQVFLKMNSLQTDDTAMYYCARNGNFYAMDYWGQGTSVTVSS VL: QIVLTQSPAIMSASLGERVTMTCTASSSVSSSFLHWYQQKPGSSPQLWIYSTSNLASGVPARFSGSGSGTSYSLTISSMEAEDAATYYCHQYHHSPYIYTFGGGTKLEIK
Response: criterion met

Request: Problem: For the binder KB001 mouse Fab FASEBA VH S28R (Fab, V domains shown) VH: EVQLKQSGPGLVAPSQSLSITCTVSGFRLSIYSVHWVRQPPGKGLEWLGMIWGGGSSDYNSALKSRLSISKDNSKSQVFLKMNSLQTDDTAMYYCARNGNFYAMDYWGQGTSVTVSS VL: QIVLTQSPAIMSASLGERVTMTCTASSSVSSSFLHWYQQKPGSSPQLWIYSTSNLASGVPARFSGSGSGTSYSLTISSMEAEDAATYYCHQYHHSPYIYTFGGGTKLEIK , is OD450nm under 0.6?
Response: criterion met
